These data points were gathered from patent US20250009730A1.

- Tested Target: NR1/NR2B ionotropic receptors encoded by the human GRIN1/GRIN2B genes, expressed in HEK293 cells (Homo sapiens, UniProt Q05586+Q13224)
- Sequence (Q13224 27-1484, other chains not shown): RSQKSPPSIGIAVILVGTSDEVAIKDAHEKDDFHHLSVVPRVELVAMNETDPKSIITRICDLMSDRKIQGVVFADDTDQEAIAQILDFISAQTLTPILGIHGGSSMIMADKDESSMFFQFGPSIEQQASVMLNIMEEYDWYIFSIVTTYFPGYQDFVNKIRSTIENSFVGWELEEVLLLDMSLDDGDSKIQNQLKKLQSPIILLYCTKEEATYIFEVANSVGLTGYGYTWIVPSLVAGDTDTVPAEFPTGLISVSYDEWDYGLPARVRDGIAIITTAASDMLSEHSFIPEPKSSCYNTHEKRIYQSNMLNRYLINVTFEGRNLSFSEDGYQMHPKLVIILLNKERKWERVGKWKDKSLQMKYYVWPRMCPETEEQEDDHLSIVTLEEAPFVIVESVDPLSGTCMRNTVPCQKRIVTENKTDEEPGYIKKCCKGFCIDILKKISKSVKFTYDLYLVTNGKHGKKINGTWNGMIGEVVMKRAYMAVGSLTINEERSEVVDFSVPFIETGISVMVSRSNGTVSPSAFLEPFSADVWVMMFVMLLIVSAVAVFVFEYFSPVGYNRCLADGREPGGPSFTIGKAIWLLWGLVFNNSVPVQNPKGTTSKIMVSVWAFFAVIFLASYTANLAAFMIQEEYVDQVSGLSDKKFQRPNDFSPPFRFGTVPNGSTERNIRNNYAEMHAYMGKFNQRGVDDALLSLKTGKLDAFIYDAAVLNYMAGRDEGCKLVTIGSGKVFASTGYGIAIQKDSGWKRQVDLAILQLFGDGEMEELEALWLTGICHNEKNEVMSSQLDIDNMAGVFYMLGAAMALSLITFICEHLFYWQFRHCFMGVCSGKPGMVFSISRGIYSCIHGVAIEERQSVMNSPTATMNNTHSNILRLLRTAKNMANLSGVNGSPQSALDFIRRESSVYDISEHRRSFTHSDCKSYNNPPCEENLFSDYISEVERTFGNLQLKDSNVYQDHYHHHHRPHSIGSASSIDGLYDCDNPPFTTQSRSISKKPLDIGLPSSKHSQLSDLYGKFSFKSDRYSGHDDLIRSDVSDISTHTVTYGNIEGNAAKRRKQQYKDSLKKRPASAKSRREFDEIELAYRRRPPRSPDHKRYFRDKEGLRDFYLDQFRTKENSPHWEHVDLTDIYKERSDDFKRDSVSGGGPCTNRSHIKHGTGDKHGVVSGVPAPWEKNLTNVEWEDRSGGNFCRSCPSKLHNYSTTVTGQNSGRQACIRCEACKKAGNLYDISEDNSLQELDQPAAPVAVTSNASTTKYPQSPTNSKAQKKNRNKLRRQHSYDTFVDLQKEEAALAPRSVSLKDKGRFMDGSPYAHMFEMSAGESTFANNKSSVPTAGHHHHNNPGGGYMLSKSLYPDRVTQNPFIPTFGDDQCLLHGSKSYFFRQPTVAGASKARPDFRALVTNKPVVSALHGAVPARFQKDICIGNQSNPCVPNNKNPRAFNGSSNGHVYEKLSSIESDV
- Experiment: Syncropatch automated patch clamp on NR1/NR2B receptors in HEK293 cells, agonist mode
- Assay type: cell-based
- Condition Details: peak current amplitude (PCA); plus 50 μM glycine
Value Type: pEC50
Please report pEC50 as the negative decimal logarithm of the molar concentration, giving only the number.

-- ask Consider the molecule N[C@@H](CCC(=O)O)C(=O)[O-].O.[Na+] [Glutamate] and give its measured pEC50.
-- reply 5.52

---

- Tested Target: NR1/NR2B ionotropic receptors encoded by the human GRIN1/GRIN2B genes, expressed in HEK293 cells (Homo sapiens, UniProt Q05586+Q13224)
- Experiment: Syncropatch automated patch clamp on NR1/NR2B receptors in HEK293 cells, agonist mode
- Format: cell-based
- Condition Details: steady state current amplitude (SSC) table; plus 50 μM glycine; read-out: NR1/NR2B PCA agonist EC50
Value Type: pEC50
Please report pEC50 as the negative decimal logarithm of the molar concentration, giving only the number.

-- ask Consider the compound N[C@@H](CCC(=O)O)C(=O)[O-].O.[Na+] [Glutamate] and give its measured pEC50.
-- reply 6.09
